# Target Or System: ERα in MCF7 cells (Homo sapiens (Human))
# Sequence (P03372 whole entry): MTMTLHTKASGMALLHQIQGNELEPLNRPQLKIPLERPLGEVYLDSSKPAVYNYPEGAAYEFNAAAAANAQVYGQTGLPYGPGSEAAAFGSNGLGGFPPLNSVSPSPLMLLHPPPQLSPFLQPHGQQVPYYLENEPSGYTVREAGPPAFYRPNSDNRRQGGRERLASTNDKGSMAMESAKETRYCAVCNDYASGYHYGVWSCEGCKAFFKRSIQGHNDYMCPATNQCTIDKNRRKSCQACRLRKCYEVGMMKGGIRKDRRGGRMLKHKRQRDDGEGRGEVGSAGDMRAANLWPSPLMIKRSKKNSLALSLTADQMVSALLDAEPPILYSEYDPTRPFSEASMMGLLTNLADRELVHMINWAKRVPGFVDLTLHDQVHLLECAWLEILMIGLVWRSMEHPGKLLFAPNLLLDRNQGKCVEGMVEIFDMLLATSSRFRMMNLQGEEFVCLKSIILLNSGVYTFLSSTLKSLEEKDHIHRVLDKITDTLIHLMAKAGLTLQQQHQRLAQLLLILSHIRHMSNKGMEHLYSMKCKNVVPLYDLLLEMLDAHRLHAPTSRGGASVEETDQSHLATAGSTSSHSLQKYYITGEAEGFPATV
# Protocol: Test C: estrogen receptor degradation activity, ERα in cell western assay in MCF7 cells
# Assay type: cell-based
# Test Parameters: 4 hours post compound addition, ERα in cell western, read-out: Degradation IC50
Quick reference for DC50 among some compounds
Record the value in nM, omitting the unit from your answer.

Compound Structure	Units Label	Number
Oc1ccc2c(c1)C(c1ccc(N[C@H]3CCN(CCCF)C3)cc1)=C(c1ccc(F)cc1Cl)CC2	nM	2
COc1ccc(C2=C(c3ccc(O[C@H]4CCN(CCCF)C4)cc3)c3ccc(O)cc3SC2)cc1F	nM	0.3

For CCOc1ccc(C2=C(c3cnc(O[C@H]4CCN(CCCF)C4)nc3)c3ccc(O)cc3CCC2)c(F)c1F the compound record lists DC50 as 0.5

For Cc1cc(C2=C(c3ccc(O[C@H]4CCN(CCCF)C4)cc3)c3ccc(O)cc3S(=O)(=O)CC2)ccc1Cl the compound record lists DC50 as 0.3

For Oc1ccc2c(c1)SCCC(c1ccc3cc[nH]c3c1)=C2c1ccc(O[C@H]2CCN(CCCF)C2)cc1 the compound record lists DC50 as 0.4

For CCOc1cc(Cl)ccc1C1=C(c2ccc(O[C@H]3CCN(CCCF)C3)cc2)c2ccc(O)cc2SC1 the compound record lists DC50 as 0.8

For Cc1ccc(C2=C(c3ccc(O[C@H]4CCN(CCCF)C4)cc3)c3ccc(C(=O)O)cc3SCC2)c(F)c1 the compound record lists DC50 as 2

For Oc1ccc2c(c1)CCCC(c1ccc(Cl)cc1Cl)=C2c1ccc(O[C@H]2CCN(CCCF)C2)nc1 the compound record lists DC50 as 0.6

For Oc1ccc2c(c1)SCCC(c1cccc3[nH]ccc13)=C2c1ccc(O[C@H]2CCN(CCCF)C2)cc1 the compound record lists DC50 as 0.4

For Cc1cc2c(cc1O)OCCC(c1cccc(O)c1)=C2c1ccc(O[C@H]2CCN(CCCF)C2)cc1 the compound record lists DC50 as 1

For Oc1ccc2c(c1)SCC(c1ccc(OC3COC3)cc1)=C2c1ccc(O[C@H]2CCN(CCCF)C2)cc1 the compound record lists DC50 as 8

For Oc1ccc2c(c1)OCCC(c1ccc3occc3c1)=C2c1ccc(O[C@H]2CCN(CCCF)C2)cc1 the compound record lists DC50 as 0.7

For Oc1cccc(C2=C(c3ccc(O[C@H]4CCN(CCCF)C4)cc3)c3ccc(O)cc3OCC2)c1 the compound record lists DC50 as 0.4

For Cc1cc(F)ccc1C1=C(c2ccc(O[C@H]3CCN(CCCF)C3)cc2)c2ccc(O)cc2OCC1 the compound record lists DC50 as 0.2

For Oc1ccc2c(c1)OCCC(c1ccc(F)cc1Cl)=C2c1ccc(O[C@H]2CCN(CCCF)C2)cc1 the compound record lists DC50 as 0.5
